Each entry below carries its recorded pIC50.
Molecular target: human IRAK4 (Homo sapiens, UniProt Q9NWZ3)
Construct: GST (N); made in house; host or cells: baculovirus-infected Hi5 (BTI-TN-5B1-4) insect cells
Experiment: Human IRAK4 kinase activity inhibition assay (IRAK4 TR-FRET assay)
Assay type: biochemical
Conditions: 1 mM ATP, GST-human IRAK4, average or median values
pIC50: −log10 of the molar value.
measured_quantity: pIC50

>>> value_observed("O[C@H]1CN(c2nc(N[C@H]3C[C@@]4(CCN4)C3)nc3c2cnn3-c2cccc(C(F)(F)F)c2)C[C@@H]1F")
8.00
>>> value_observed("CC(C)(O)C1CCN(c2nc(N[C@H]3C[C@](C)(O)C3)nc3c2cnn3-c2cccc(C(F)(F)F)c2)CC1")
8.19
>>> value_observed("CC(C)(O)CC1CN(c2nc(N[C@H]3C[C@@]4(CCN4)C3)nc3c2cnn3-c2cccc(C(F)F)c2)C1")
8.56

###

Assay: Metabolic stability in human liver microsomes
Conditions: hepatic in vivo blood clearance calculated with well stirred liver model; 1 µM compound; '(stable)' given beside < 0.01
measured_quantity: CLblood, human microsomes (mL/min/kg)

>>> value_observed("CC(C)(O)C1CCN(c2nc(NC3CCS(=O)(=O)C3)nc3c2cnn3-c2cccc(C(F)(F)F)c2)CC1 (single isomer, unassigned; (+))")
2.33
>>> value_observed("CCC1(O)CN(c2nc(N[C@@H]3CNC(=O)C3)nc3c2cnn3-c2cccc(C(F)(F)F)c2)C1")
7.67
>>> value_observed("CC(C)(O)CC1CN(c2nc(N[C@H]3C[C@H](S(C)(=O)=O)C3)nc3c2cnn3-c2cccc(OC(F)F)c2)C1")
9.17
>>> value_observed("C[C@H]1CN(c2nc(N[C@H]3C[C@H](S(C)(=O)=O)C3)nc3c2cnn3-c2cccc(C(F)F)c2)C[C@@H]1O (relative stereo) [II-17-1]")
1.67

###

Assay: Metabolic stability in human liver microsomes
Details: hepatic in vivo blood clearance calculated with well stirred liver model; 1 µM compound; '(stable)' given beside < 0.01
measured_quantity: CLblood, human microsomes (L/h/kg)

>>> value_observed("CC(C)(O)C1CCN(c2nc(N[C@H]3C[C@@]4(CCN4)C3)nc3c2cnn3-c2cccc(C(F)F)c2)CC1")
0.10
>>> value_observed("CC(C)(O)C1CCN(c2nc(N[C@@H]3CNC(=O)C3)nc3c2cnn3-c2cccc(OC(F)F)c2)CC1")
0.18
>>> value_observed("O[C@@H]1CN(c2nc(N[C@H]3C[C@@H](O)C3)nc3c2cnn3-c2cccc(C(F)(F)F)c2)C[C@H]1F")
0.37
>>> value_observed("CC(C)(O)CC1CN(c2nc(N[C@H]3C[C@H](S(C)(=O)=O)C3)nc3c2cnn3-c2cccc(C(F)(F)F)c2)C1")
0.24

###

Target: human IRAK4 (Homo sapiens, UniProt Q9NWZ3)
Sequence (Q9NWZ3 1-460): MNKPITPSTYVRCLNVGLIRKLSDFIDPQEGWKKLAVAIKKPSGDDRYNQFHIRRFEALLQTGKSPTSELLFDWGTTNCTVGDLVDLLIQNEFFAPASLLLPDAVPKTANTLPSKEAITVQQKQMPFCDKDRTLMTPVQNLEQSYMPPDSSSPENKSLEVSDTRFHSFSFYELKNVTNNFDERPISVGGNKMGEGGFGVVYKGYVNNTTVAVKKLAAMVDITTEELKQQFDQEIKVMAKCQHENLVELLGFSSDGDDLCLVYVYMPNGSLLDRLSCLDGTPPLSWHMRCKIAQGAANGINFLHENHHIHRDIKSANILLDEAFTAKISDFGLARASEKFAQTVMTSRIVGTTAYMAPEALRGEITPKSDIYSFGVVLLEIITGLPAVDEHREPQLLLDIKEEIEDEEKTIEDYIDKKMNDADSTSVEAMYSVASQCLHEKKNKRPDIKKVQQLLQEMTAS
Overview of reported IC50 across a group of compounds:
measured_quantity: IC50

>>> value_observed("CC(C)(O)CC1CN(c2nc(N[C@H]3C[C@H](S(C)(=O)=O)C3)nc3c2cnn3-c2cccc(C(F)F)c2)C1 [II-19]")
"1.63 nM"
>>> value_observed("C[C@]1(O)C[C@H](Nc2nc(N3CC(N4CCOCC4)C3)c3cnn(-c4cccc(C(F)(F)F)c4)c3n2)C1 [Example I-77]")
"4.8 nM"
>>> value_observed("CS(=O)(=O)N1CC(Nc2nc(N3C[C@H](O)[C@@H](F)C3)c3cnn(-c4cccc(C(F)F)c4)c3n2)C1 [II-22]")
"45.3 nM"
>>> value_observed("CN1CC[C@H](Nc2nc(N3CCC(C(C)(C)O)CC3)c3cnn(-c4cccc(C(C)(C)O)c4)c3n2)C1 [VI-1]")
"77.3 nM"
>>> value_observed("C[C@]1(O)C[C@H](Nc2nc(N3CC(N4CCOCC4=O)C3)c3cnn(-c4cccc(C(F)(F)F)c4)c3n2)C1 [Example I-122]")
"2.75 nM"
>>> value_observed("O=C1C[C@H](Nc2nc(N3CC(CC(=O)N4CC5CC(C4)O5)C3)c3cnn(-c4cccc(C(F)(F)F)c4)c3n2)CN1 [Example I-52]")
"7.99 nM"

###

Assay: Metabolic stability in human liver microsomes
Conditions: hepatic in vivo blood clearance calculated with well stirred liver model; 1 µM compound; '(stable)' given beside < 0.01
// reported CLblood, human microsomes per item
measured_quantity: CLblood, human microsomes

>>> value_observed("CC(C)(O)CC1CN(c2nc(NC3CN(S(C)(=O)=O)C3)nc3c2cnn3-c2cccc(C(F)F)c2)C1")
"< 0.01 (stable) L/h/kg"
>>> value_observed("O=C1CN(C2CN(c3nc(N[C@H]4C[C@H](O)C4)nc4c3cnn4-c3cccc(C(F)F)c3)C2)CCN1")
"< 0.01 (stable) L/h/kg"
>>> value_observed("C[C@]1(N)C[C@@H](Nc2nc(N3CCOCC3)c3cnn(-c4cccc(C(F)(F)F)c4)c3n2)C1")
"< 0.01 (stable) L/h/kg"

###

Assay: Metabolic stability in human liver microsomes
Conditions: maximal oral bioavailability calculated with well stirred liver model; 1 µM compound, 0.5 mg/mL protein; '(stable)' given beside 100
measured_quantity: Fmax, human microsomes

>>> value_observed("O=C1CN(C2CN(c3nc(N[C@H]4C[C@@H](O)C4)nc4c3cnn4-c3cccc(C(F)(F)F)c3)C2)CCN1")
"100 (stable) %"
>>> value_observed("CN1CC[C@H](Nc2nc(N3CCC(C(C)(C)O)CC3)c3cnn(-c4cccc(C(F)F)c4)c3n2)C1")
"100 (stable) %"
>>> value_observed("CC1(O)CCN(C2CN(c3nc(N[C@@H]4CNC(=O)C4)nc4c3cnn4-c3cccc(C(F)(F)F)c3)C2)CC1")
"100 (stable) %"
>>> value_observed("CC(C)(O)C1CCN(c2nc(N[C@@H]3CNC(=O)C3)nc3c2cnn3-c2cccc(OC(F)F)c2)CC1")
"86%"
>>> value_observed("CC(C)(O)C1CCN(c2nc(N[C@H]3C[C@H](S(C)(=O)=O)C3)nc3c2cnn3-c2cccc(OC(F)F)c2)CC1")
"76%"
>>> value_observed("O=S1(=O)CCC(Nc2nc(N3CC(N4CCOCC4)C3)c3cnn(-c4cccc(C(F)F)c4)c3n2)CC1")
"88%"
>>> value_observed("CC(C)(O)C1CCN(c2nc(N[C@@H]3CNC(=O)C3)nc3c2cnn3-c2cccc(C(F)(F)F)c2)CC1")
"76%"
>>> value_observed("CC1(O)CCN(C2CN(c3nc(N[C@H]4C[C@H](O)C4)nc4c3cnn4-c3cccc(C(F)(F)F)c3)C2)CC1")
"69%"
>>> value_observed("CC(C)(O)C1CCN(c2nc(N[C@H]3CN4CCC3CC4)nc3c2cnn3-c2cccc(C(F)(F)F)c2)CC1")
"76%"
>>> value_observed("CC(C)(O)CC1CN(c2nc(N[C@@H]3CNC(=O)C3)nc3c2cnn3-c2cccc(C(F)(F)F)c2)C1")
"90%"
>>> value_observed("O=S1(=O)CC[C@@H](Nc2nc(N3CC(N4CCOCC4)C3)c3cnn(-c4cccc(C(F)(F)F)c4)c3n2)C1")
"74%"
>>> value_observed("CS(=O)(=O)[C@H]1C[C@H](Nc2nc(N3C[C@H](O)[C@@H](F)C3)c3cnn(-c4cccc(C(F)(F)F)c4)c3n2)C1")
"88%"
>>> value_observed("CC(C)(O)C1CCN(c2nc(N[C@@H]3CCOC3)nc3c2cnn3-c2cccc(C(F)(F)F)c2)CC1")
"30%"
>>> value_observed("CC(C)(O)C1CCN(c2nc(N[C@H]3C[C@](C)(N)C3)nc3c2cnn3-c2cccc(C(F)(F)F)c2)CC1")
"97%"
>>> value_observed("CS(=O)(=O)[C@H]1C[C@H](Nc2nc(N3C[C@@H](O)[C@H](F)C3)c3cnn(-c4cccc(C(F)(F)F)c4)c3n2)C1")
"81%"
>>> value_observed("CC(C)(O)C1CCN(c2nc(NC3CN(S(C)(=O)=O)C3)nc3c2cnn3-c2cccc(C(F)(F)F)c2)CC1")
"95%"
